Target: T1, human IL-18Rβ ECD Fc fusion (118-AP-100, R&D Systems) (human, UniProt O95256 20-356)
T1 construct: Bought protein; also called hIL-18Rβ; recombinant human IL-18Rb; not shown: Fc tag of the bought fusion protein, not described
T1 sequence: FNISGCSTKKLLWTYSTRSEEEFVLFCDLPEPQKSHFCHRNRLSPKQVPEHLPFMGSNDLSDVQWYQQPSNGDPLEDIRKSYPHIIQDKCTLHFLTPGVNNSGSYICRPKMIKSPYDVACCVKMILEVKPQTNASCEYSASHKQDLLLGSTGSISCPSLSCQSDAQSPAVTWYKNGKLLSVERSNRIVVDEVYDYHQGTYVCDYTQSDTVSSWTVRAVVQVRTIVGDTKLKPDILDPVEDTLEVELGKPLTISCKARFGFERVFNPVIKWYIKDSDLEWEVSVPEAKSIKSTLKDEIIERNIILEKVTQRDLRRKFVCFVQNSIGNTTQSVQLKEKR
Test: ELISA on recombinant human IL-18Rβ, normalised OD 450 nm, Fab with PBS or with saturating IgG 3131 [top plot]
MEASURED ATTRIBUTE: binding result

BINDER: 3131 AM2-13 (Fab, V domains shown, Fab) VH: EVQLVESGGGLVQPGGSLRLSCAASGFNLYYSSMHWVRQAPGKGLEWVASIYSSYGYTYYADSVKGRFTISADTSKNTAYLQMNSLRAEDTAVYYCARSSFSHGYGWYGLDYWGQGTLVTVSS VL: DIQMTQSPSSLSASVGDRVTITCRASQSVSSAVAWYQQKPGKAPKLLIYSASSLYSGVPSRFSGSRSGTDFTLTISSLQPEDFATYYCQQYGYHDAGLITFGQGTKVEIK
RESULT VALUE: binds
--
BINDER: 3131 AM2-5 (Fab, V domains shown, Fab) VH: EVQLVESGGGLVQPGGSLRLSCAASGFNLYYSSMHWVRQAPGKGLEWVASIYSSSGDTHYADSVKGRFTISADTSKNTAYLQMNSLRAEDTAVYYCARSSFSHGYGWYGLDYWGQGTLVTVSS VL: DIQMTQSPSSLSASVGDRVTITCRASQSVSSAVAWYQQKPGKAPKLLIYSASSLYSGVPSRFSGSRSGTDFTLTISSLQPEDFATYYCQQYGYHYAGLITFGQGTKVEIK
RESULT VALUE: binds
--
BINDER: 3131 AM2-7 (Fab, V domains shown, Fab) VH: EVQLVESGGGLVQPGGSLRLSCAASGFNLYYSSMHWVRQAPGKGLEWVASIYSSHGGTYYADSVKGRFTISADTSKNTAYLQMNSLRAEDTAVYYCARSSFSHGYGWYGLDYWGQGTLVTVSS VL: DIQMTQSPSSLSASVGDRVTITCRASQSVSSAVAWYQQKPGKAPKLLIYSASSLYSGVPSRFSGSRSGTDFTLTISSLQPEDFATYYCQQYGYHDAGLITFGQGTKVEIK
RESULT VALUE: binds
